Attribution: patent US9643940B2

Method description: Chemical stability test (residual percentage by HPLC after storage)
Format: physicochemical
Condition label: 40° C.-one month; relative to sample stored at −20° C., HPLC
Measured endpoint: Residual percentage (%)

Molecule | Number
C[C@@](O)(C/C=C/[C@H]1CCC(=O)[C@@H]1CCSc1nc(C(=O)O)cs1)CCC(F)=C(F)F [Crystalline Form A] | 99.6
C[C@@](O)(C/C=C/[C@H]1CCC(=O)[C@@H]1CCSc1nc(C(=O)O)cs1)CCC(F)=C(F)F [Compound 17] | 76.0
C[C@@](O)(C/C=C/[C@H]1CCC(=O)[C@@H]1CCSc1nc(C(=O)O)cs1)CCC(F)=C(F)F [Crystalline Form B] | 99.6
C[C@@](O)(C/C=C/[C@H]1CCC(=O)[C@@H]1CCSc1nc(C(=O)O)cs1)CCC(F)=C(F)F [Crystalline Form C] | 99.4

---

Method description: Chemical stability test (residual percentage by HPLC after storage)
Format: physicochemical
Condition label: 40° C.-75% RH-one month; relative to sample stored at −20° C., HPLC
Measured endpoint: Residual percentage (%)

Check out these entries, answers already filled in.
Compound | Scale unit | Residual percentage (%)
C[C@@](O)(C/C=C/[C@H]1CCC(=O)[C@@H]1CCSc1nc(C(=O)O)cs1)CCC(F)=C(F)F [Crystalline Form C] | % | 97.5
C[C@@](O)(C/C=C/[C@H]1CCC(=O)[C@@H]1CCSc1nc(C(=O)O)cs1)CCC(F)=C(F)F [Crystalline Form B] | % | 92.6

a: C[C@@](O)(C/C=C/[C@H]1CCC(=O)[C@@H]1CCSc1nc(C(=O)O)cs1)CCC(F)=C(F)F [Compound 17]
b: C[C@@](O)(C/C=C/[C@H]1CCC(=O)[C@@H]1CCSc1nc(C(=O)O)cs1)CCC(F)=C(F)F [Crystalline Form A]
Of a versus b , which is the one with smaller reported Residual percentage (%)? Your answer should be the label attached to the chosen record.
a
(a: 58.6%, b: 92.0%)

---

Method description: Chemical stability test (residual percentage by HPLC after storage)
Format: physicochemical
Condition label: 60° C.-one month; relative to sample stored at −20° C., HPLC
Measured endpoint: Residual percentage (%)

Compound | Number
C[C@@](O)(C/C=C/[C@H]1CCC(=O)[C@@H]1CCSc1nc(C(=O)O)cs1)CCC(F)=C(F)F [Crystalline Form C] | 97.9

I: C[C@@](O)(C/C=C/[C@H]1CCC(=O)[C@@H]1CCSc1nc(C(=O)O)cs1)CCC(F)=C(F)F [Crystalline Form B]
II: C[C@@](O)(C/C=C/[C@H]1CCC(=O)[C@@H]1CCSc1nc(C(=O)O)cs1)CCC(F)=C(F)F [Compound 17]
Task for the reader: decide whether I or II has the larger Residual percentage (%). Bench note: the answer is the label of the chosen record.
I

---

Method description: Examination of salts of Compound 17 for crystallization
Type: physicochemical
Condition label: salt of Compound 17 with the stated counter base; concentrated from methanol, triturated with various solvents
Measured endpoint: State

Molecule | Result
c1ccc(CNCc2ccccc2)cc1 | Oily
C1CCC(NC2CCCCC2)CC1 [Dicyclohexylamine] | Oily
CNCCCO | Oily
OCCC1CCNCC1 [drawing 22] | Oily
C=CCNCC=C | Oily
C1=CCNCC1 | Oily
C1CCCNCC1 | Oily
OC1CCNCC1 [drawing 24] | Oily
CCc1ncc[nH]1 | Oily
CCNCCCCO | Oily

Look up and state reported State for CNCCOC
Oily

Given the molecule CN1CCCCC1 , write its reported State.
Oily

Dear colleague, please send me the reported State for C#CCN(C)C when you can.
Oily

Check the records and state State for OCCNCCO [Diethanolamine]
Oily

---

Method description: Examination of salts of Compound 17 for crystallization
Format: physicochemical
Condition label: salt of Compound 17 with the stated counter base; concentrated from methanol, triturated with various solvents
Measured endpoint: State

Consider the reported State for these compounds:
Compound | State
CNCCNC | Oily
COC1CCNCC1 | Oily
CC1CCNCC1 [drawing 23] | Oily
c1ccc2c(c1)CNC2 | Oily
[Ca] | Oily
CCN(CC)CC | Oily
[K+] | Oily
[Mg] | Oily

Using known records, supply State for CC(C)(C)N
Oily

// Input: CCCCNCCC . Output its State only.
Oily

Return State (reported value) for this compound: OC[C@@H]1CCCN1
Oily
